# TEST DETAILS: in vitro
# STATED CONDITIONS: human, hela cells, % viability
TEST READOUT: viability at 28.5 h, 10 µM (%)
Report as a plain number; the unit % is understood.

>>> readout_value("CCCCNC(=O)CCCN(CC)CCC1=CC2(CCCC2)c2ccccc21")
91.7
>>> readout_value("CCCC(NC(=O)C1C=CCN1S(C)(=O)=O)c1cccs1 (stereo not shown)")
92.9
>>> readout_value("COCCNC(=O)c1nn(-c2cccc(C(C)C)c2)cc1O")
90.8
>>> readout_value("CC(C(=O)N1CCC(c2nn(C)c3ncccc23)CC1)c1ccccc1 (stereo not shown)")
97.4
>>> readout_value("N#CCCn1cc(C(=O)N2CCCCC2)c(-c2cccc(Cl)c2)n1")
80
>>> readout_value("O=C1CCCN1CCOc1nccnc1-c1ccccc1Cl")
100
>>> readout_value("Cn1c(=O)[nH]c(=O)c2c1nc(NC1CCCCC1)n2CCCc1ccccc1")
92.7
>>> readout_value("COc1ccc([C@@]23CCC(NC(=O)CCc4cccnc4)C[C@@H]2N(C)CC3)cc1OC (stereo partly shown)")
92.8

Now, please, on to the next compound.
Note viability at 28.5 h, 10 µM for the compound shown: CCOc1ccsc1C(=O)Nc1ccccc1N1CCCNCC1 [CBK036354T]
95.7
